List of pIC50 tested on UniProtKB Q96GD4.
Sequence (Q96GD4 whole entry): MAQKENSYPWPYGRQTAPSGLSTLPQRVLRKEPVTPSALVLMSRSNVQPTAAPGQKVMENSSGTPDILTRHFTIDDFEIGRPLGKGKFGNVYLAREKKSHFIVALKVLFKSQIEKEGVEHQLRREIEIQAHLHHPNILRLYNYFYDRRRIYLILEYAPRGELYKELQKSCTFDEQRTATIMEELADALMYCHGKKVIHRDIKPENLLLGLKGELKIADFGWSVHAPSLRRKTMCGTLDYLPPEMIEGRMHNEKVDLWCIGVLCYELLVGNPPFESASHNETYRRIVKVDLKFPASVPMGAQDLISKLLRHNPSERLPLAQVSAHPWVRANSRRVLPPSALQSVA
pIC50: −log10 of the molar value.

molecule: CC(C)Nc1nc(-c2ccco2)nc2ccc(C#CCO)cc12 [Compound (C)]
pIC50: 2.47
//
molecule: CC(C)Nc1nc(-c2ccco2)nc2ccc(/C=C/C(C)(C)O)cc12 [Compound (A)]
pIC50: 4.79

* * *

Test system: FGFR
experimentNotes: RTK-Assay (ELISA, chemiluminescence)
Type: biochemical

compound: CC(C)Nc1nc(-c2ccco2)nc2ccc(/C=C/C(C)(C)O)cc12 [Compound (A)]
IC50: > 100 µM

compound: CC(C)Nc1nc(-c2ccco2)nc2ccc(C#CCO)cc12 [Compound (C)]
IC50: > 100 µM

The origin of these recorded values is patent EP2241565A1.
